tested on: SF-295 CNS; test: NCI tumour cell line growth inhibition, 48 h
List of TGI values.
Reply numerically in µM, unit not repeated.

Request: Give TGI for `O=C(O)CCCc1ccc2c(c1)CC1(C2)Cc2cc3c(cc2C1)CCCC3`
Result: 56.9

Request: Using known records, supply TGI for `Cc1c(C)c(S(=O)(=O)N(CCCCN)OCCCN)c(C)c2c1OC(C)(C)CC2`
Result: 40.6

Request: Return reported TGI. Input compound: CC(=O)Oc1ccc(C2=Cc3ccc(OC(C)=O)cc3OC2C)cc1 (centres undefined)
Result: 4.25

Request: Read off the recorded TGI for `CCc1ccc(Nc2cc(C)c3ccc(O)cc3n2)cc1`
Result: 20.3
